// provenance: patent US5328912A

Molecular target: GABAa receptor
Test: GABAa receptor binding assay (displacement of 3H-RO15-1788, rat cortical tissue homogenate)
Conditions: 3H-RO15-1788 0.5 nM, 30 min at 4° C., pH 7.4
Quick list: IC50 per entry.
measurement-type: IC50 (µM)

O=c1[nH]c2c(c3nc(-c4ccccc4F)cn13)CN(Cc1ccc(F)cc1)CC2 [Compound 22]	0.0038
CC(c1ccccc1)N1CCc2[nH]c(=O)n3cc(-c4ccccc4F)nc3c2C1 (racemic) [Compound 21]	0.0048
O=c1[nH]c2c(c3nc(-c4cccc(Cl)c4)cn13)CN(Cc1ccccc1)CC2 [Compound 14]	0.1
CN1CCc2[nH]c(=O)n3cc(-c4ccccc4F)nc3c2C1 [Compound 49]	0.03
O=c1[nH]c2c(c3nc(-c4ccccc4F)cn13)CN(Cc1ccccc1F)CC2 [Compound 13]	0.0024
CCC(=O)N1CCc2[nH]c(=O)n3cc(-c4ccccc4F)nc3c2C1 [Compound 36]	0.01
O=C(c1ccccc1)N1CCc2[nH]c(=O)n3cc(-c4ccccc4F)nc3c2C1 [Compound 1]	0.5
O=C(OCc1ccccc1)N1CCc2[nH]c(=O)n3cc(-c4ccccc4F)nc3c2C1 [Compound 44]	0.01
